Target: PI3Kα-RBD, PIK3CA-RBD(157-289) (human)
Test: ITC; RAS GTPase (GMPPNP-bound, 300–500 μM) in the syringe, PI3K isoform or PI3Kα-RBD (30–50 μM) in the cell; 25 °C; 20 mM HEPES pH 7.4, 150 mM NaCl, 5 mM MgCl2, 1 mM TCEP; one set of sites; two replicates
Entries whose stoichiometry N is below 0.9 sites take Y; entries at or above 0.9 sites take N.

Consider the worked cases shown below.
INSERT INTO assay_data (substance, assigned_class) VALUES
  ('RRAS2-T52R, GMPPNP-bound (from UniProt P62070 1-179) (domain or fragment)', 'N'),
  ('RRAS2-E74A, GMPPNP-bound (from UniProt P62070 1-179) (domain or fragment)', 'Y'),
  ('RRAS2-Q72H, GMPPNP-bound (from UniProt P62070 1-179) (domain or fragment)', 'Y');

With those in mind, consider the next substance.
q: Input RRAS2-D42A, GMPPNP-bound (from UniProt P62070 1-179) (domain or fragment) ; condition: stoichiometry N strictly below 0.9 sites. Does it hold?
a: N

----------
Target: PI3Kα-RBD-S231A (human) (UniProt P42336)
Experiment: ITC; RAS GTPase (GMPPNP-bound, 300–500 μM) in the syringe, PI3K isoform or PI3Kα-RBD (30–50 μM) in the cell; 25 °C; 20 mM HEPES pH 7.4, 150 mM NaCl, 5 mM MgCl2, 1 mM TCEP; one set of sites; two replicates
attribute.measured: pKd
In textbook form, pKd equals minus log to base ten of the concentration in mol/L.

q: Identify the reported pKd for the following entry. RRAS2, GMPPNP-bound (from UniProt P62070 1-179) (domain or fragment)
a: 5.08

----------
Target: PI3Kα-RBD-K210A (human) (UniProt P42336)
Assay: ITC; RAS GTPase (GMPPNP-bound, 300–500 μM) in the syringe, PI3K isoform or PI3Kα-RBD (30–50 μM) in the cell; 25 °C; 20 mM HEPES pH 7.4, 150 mM NaCl, 5 mM MgCl2, 1 mM TCEP; one set of sites; two replicates
attribute.measured: pKd
Conceptually, pKd converts a concentration in mol/L into minus its log10.

q: Look up and report measured pKd for this entry: RRAS2, GMPPNP-bound (from UniProt P62070 1-179) (domain or fragment)
a: 4.38

----------
Biological target: PI3Kα-RBD, PIK3CA-RBD(157-289) (human) (UniProt P42336)
Experiment: ITC; RAS GTPase (GMPPNP-bound, 300–500 μM) in the syringe, PI3K isoform or PI3Kα-RBD (30–50 μM) in the cell; 25 °C; 20 mM HEPES pH 7.4, 150 mM NaCl, 5 mM MgCl2, 1 mM TCEP; one set of sites; two replicates
Recorded stoichiometry N for the following substances
Answer format: number, then unit.

As a guide, the following entries are already answered.
INSERT INTO results (substance, reading) VALUES
  ('RRAS2-Y38F, GMPPNP-bound (from UniProt P62070 1-179) (domain or fragment)', '0.92 sites'),
  ('RRAS2-D42E, GMPPNP-bound (from UniProt P62070 1-179) (domain or fragment)', '0.89 sites'),
  ('RRAS2-G23D, GMPPNP-bound (from UniProt P62070 1-179) (domain or fragment)', '0.75 sites'),
  ('RRAS2-F75A, GMPPNP-bound (from UniProt P62070 1-179) (domain or fragment)', '1.11 sites'),
  ('RRAS2-E48A, GMPPNP-bound (from UniProt P62070 1-179) (domain or fragment)', '0.92 sites'),
  ('RRAS2-M78A, GMPPNP-bound (from UniProt P62070 1-179) (domain or fragment)', '1.2 sites'),
  ('RRAS2-G23V, GMPPNP-bound (from UniProt P62070 1-179) (domain or fragment)', '0.91 sites');

Now take the following substance into account.
q: Query stoichiometry N for RRAS2-D44A, GMPPNP-bound (from UniProt P62070 1-179) (domain or fragment)
a: 0.81 sites

----------
Target: PI3Kα-RBD, PIK3CA-RBD(157-289) (human) (UniProt P42336)
Test: ITC; RAS GTPase (GMPPNP-bound, 300–500 μM) in the syringe, PI3K isoform or PI3Kα-RBD (30–50 μM) in the cell; 25 °C; 20 mM HEPES pH 7.4, 150 mM NaCl, 5 mM MgCl2, 1 mM TCEP; one set of sites; two replicates
attribute.measured: Kd (µM)
# number only, unit µM dropped from output

Recorded Kd, per entry:
INSERT INTO assay_data (substance, attribute_measured, reading) VALUES
  ('RRAS2-M78A, GMPPNP-bound (from UniProt P62070 1-179) (domain or fragment)', 'Kd', 134),
  ('RRAS2-Q72H, GMPPNP-bound (from UniProt P62070 1-179) (domain or fragment)', 'Kd', 14.2);

q: Report Kd, nothing else, for this substance: RRAS2-E74A, GMPPNP-bound (from UniProt P62070 1-179) (domain or fragment)
a: 12.4

q: Annotate the substance RRAS2-F75A, GMPPNP-bound (from UniProt P62070 1-179) (domain or fragment) with its measured Kd.
a: 21.5

q: State, in one line, measured Kd of RRAS2-Q72L, GMPPNP-bound (from UniProt P62070 1-179) (domain or fragment)
a: 8.5

q: Give the reported value of Kd for this record: RRAS2-G23D, GMPPNP-bound (from UniProt P62070 1-179) (domain or fragment)
a: 6.4

q: Identify the reported Kd for the following entry. RRAS2-D42E, GMPPNP-bound (from UniProt P62070 1-179) (domain or fragment)
a: 16.1

q: // Input: RRAS2-D42A, GMPPNP-bound (from UniProt P62070 1-179) (domain or fragment) . Output its Kd only.
a: 66.9

q: Please give the documented Kd of RRAS2-E48A, GMPPNP-bound (from UniProt P62070 1-179) (domain or fragment)
a: 32.4

----------
Target: PI3Kα-RBD-Q205A (human)
Assay: ITC; RAS GTPase (GMPPNP-bound, 300–500 μM) in the syringe, PI3K isoform or PI3Kα-RBD (30–50 μM) in the cell; 25 °C; 20 mM HEPES pH 7.4, 150 mM NaCl, 5 mM MgCl2, 1 mM TCEP; one set of sites; two replicates
attribute.measured: Kd (µM)
Report only the number, with the unit µM understood.

q: Using the record for RRAS2, GMPPNP-bound (from UniProt P62070 1-179) (domain or fragment) , state its measured Kd.
a: 8.2

----------
Molecular target: PI3Kα-RBD, PIK3CA-RBD(157-289) (human)
Assay: ITC; RAS GTPase (GMPPNP-bound, 300–500 μM) in the syringe, PI3K isoform or PI3Kα-RBD (30–50 μM) in the cell; 25 °C; 20 mM HEPES pH 7.4, 150 mM NaCl, 5 mM MgCl2, 1 mM TCEP; one set of sites; two replicates
attribute.measured: pKd
The value called pKd is obtained by taking minus log10 of the concentration in mol/L.

Here's what some known entries look like.
INSERT INTO measurements (substance, attribute_measured, reading) VALUES
  ('RRAS2-T52R, GMPPNP-bound (from UniProt P62070 1-179) (domain or fragment)', 'pKd', 4.55),
  ('RRAS2-R63A, GMPPNP-bound (from UniProt P62070 1-179) (domain or fragment)', 'pKd', 5.19),
  ('RRAS2-Y38F, GMPPNP-bound (from UniProt P62070 1-179) (domain or fragment)', 'pKd', 5.37);

q: Complete the entry with pKd for RRAS2-D44A, GMPPNP-bound (from UniProt P62070 1-179) (domain or fragment)
a: 4.55

q: Kindly indicate its recorded pKd. Item: RRAS2-G23V, GMPPNP-bound (from UniProt P62070 1-179) (domain or fragment)
a: 4.89
